System: CCRF-CEM leukemia
assay name: NCI tumour cell line growth inhibition, 48 h; in the data active = GI50 below about 0.43 µM; inactive = the rest
Mark one answer only. Choices: yes (1) (active), no (0) (inactive)

Task item: What outcome does the record of this test show for CCCCCCCCCCS(=O)CC(CO)NC(=O)/C=C/c1c(C)[nH]c(=O)[nH]c1=O (stereo not drawn) ?
Reply: no (0)

Task item: Called result for COC(=O)[C@@H](C)C[C@H](Cc1ccc2ccccc2c1)NC(=O)c1csc([C@@H](C[C@H](C(C)C)N(C)C(=O)[C@@H](NC(=O)[C@H]2CCCCN2C)C(C)C)OC(C)=O)n1
Reply: yes (1)

Task item: Hi team, can someone confirm the assay call for c1ccc([P+](c2ccccc2)(c2ccccc2)c2ccc3c4ccc([P+](c5ccccc5)(c5ccccc5)c5ccccc5)c5cccc(c6cccc2c63)c54)cc1 ?
Reply: no (0)

* * *

System: LOX IMVI melanoma
assay name: NCI tumour cell line growth inhibition, 48 h
Hi there, I'd appreciate the recorded TGI for every entry that follows.

# TGI (molecule: CN(C)C1C(=O)C(C(=O)NCN2CCCC2)=C(O)C2(O)C(=O)C3=C(O)c4c(O)cccc4C(C)(O)C3CC12 (stereo unspecified) ) is > 100 µM

In plain terms, [N-]=[N+]=NCCCn1c2c(c3cc4c(cc3c1=O)OCO4)C(=O)c1ccccc1-2 has a documented TGI of > 100 µM

Notebook: CCOC(=O)C12CCCC1(O)N(NC(N)=O)C(C)=C2C(=O)OC (stereo unspecified) , TGI read as > 100 µM

For reference, reported TGI for CC(C)=[CH][Sb]([Br])([CH]=C(C)C)([CH]=C(C)C)[c]1ccccc1 stands at > 100 µM

Value of measured TGI for the entry c1coc(C2=Nc3cccc4cccc(c34)N2)c1 : > 100 µM

Per the records, this molecule ( O=c1c(-c2ccccc2)c2n(c3ccccc13)CCN2 ) has TGI equal to > 100 µM

Given item O=C(/C=C/NC(=O)OCc1ccccc1)OCc1ccccc1 , the value recorded as its TGI is > 100 µM

# TGI (molecule: c1ccc2c(c1)SC1=C(SC(=C3SC4=C(S3)Sc3ccccc3S4)S1)S2 ) is > 100 µM

So, C1CSC(Sc2nc(SC3=NCCS3)nc(SC3=NCCS3)n2)=N1 ? Its TGI was > 100 µM

Form field TGI, entry Nc1nonc1C(=Nc1ccc(F)c(Cl)c1)NO : > 100 µM

Entry COc1ccc(/C(=N/O)C(c2ccc(OC)cc2)C2C(=O)Oc3ccccc32)cc1 (stereo unspecified) , TGI reported as > 100 µM

* * *

Test system: BT-549 breast
assay name: NCI tumour cell line growth inhibition, 48 h
Can you tell me TGI for the items I'm about to list?

What the record says about Cn1ccc(=O)c2c(O)c3ccccc3c(O)c21 : TGI is > 100 µM

GET /value?item= CC(=O)O[C@H]1C(=O)[C@@]2(C)[C@H]([C@H](OC(=O)c3ccccc3)[C@]3(O)C[C@H](OC(=O)[C@H](O)[C@@H](NC(=O)c4ccccc4)c4ccccc4C)C(C)=C1C3(C)C)[C@]1(OC(C)=O)CO[C@@H]1C[C@@H]2O &field=TGI returns > 11.8 µM

Please fill in: TGI reported for C#CCn1cnc2cnc(Nc3cccc(NC(=O)CCl)c3)nc21 = > 62.5 µM

TGI reading for C=Cc1nc2nnc(CCCCCCCCc3nnc4nc(C=C)[nH]n34)n2[nH]1 : > 100 µM

Record CC(C)OC(=O)C1=C2c3ncccc3C(=O)N2[C@@H](Cl)[C@H](Cl)[C@H]1Cl . Reported TGI: > 100 µM

For record C1CSC(Sc2nc(SC3=NCCS3)nc(SC3=NCCS3)n2)=N1 the listed TGI is > 100 µM

Query CC(=O)NS(=O)(=O)c1ccc(-n2nc(-c3ccc(Cl)cc3)cc2-c2cc(O)ccc2O)cc1 yields TGI of > 100 µM

Please fill in: TGI reported for CCOC(=O)C1=C(Cl)c2cccnc2C1=O = > 100 µM

Form: molecule = O=c1c(-c2ccccc2)c2n(c3ccccc13)CCN2 ; TGI = > 100 µM

So, COc1ccc(O)c(/C=N/NC(=S)N2CCCCC2)c1 ? Its TGI was > 94.8 µM

The reported value for Cc1ccc(S(=O)(=O)NC(=O)NC(C(=O)O)C(C)C)cc1 (configuration not stated) in terms of TGI is > 100 µM

The molecule identified as CC1=NC(C)(C)[N+]([O-])=C1 registered its TGI at > 10 µM

* * *

Test system: HOP-92 NSCLC
assay name: NCI tumour cell line growth inhibition, 48 h
value type: TGI

# molecule COc1cccc2c1N[S@](=O)S2 ; its TGI = > 100 µM

Notebook: COc1cc(/C=N/n2c(-c3ccccc3)n[nH]c2=O)cc(OC)c1OC , TGI read as > 82.2 µM

Lab book: TGI of ClC(Cl)(Cl)C(N1CCN(c2ccccc2)CC1)N1CCN(c2ccccc2)CC1 noted as > 100 µM

The molecule listed as CCOCCOC(=O)C1CCC(=O)N1CN(C(C)=O)c1cc(OC)ccc1OC (stereo not drawn) has a reported TGI of > 100 µM

The reported value for CC(=O)NCCC1CNc2ccccc21 (stereo not drawn) in terms of TGI is > 100 µM

In plain terms, COc1cc([C@@H]2c3cc4c(cc3[C@@H](Nc3ccc(N=Cc5ccc(C(=O)O[C@@H](C(=O)O[C@H]6C[C@@]7(O)[C@@H](OC(=O)c8ccccc8)[C@@H]8[C@]9(OC(C)=O)CO[C@@H]9C[C@H](O)[C@@]8(C)C(=O)[C@H](OC(C)=O)C(=C6C)C7(C)C)[C@@H](NC(=O)c6ccccc6)c6ccccc6)cc5)cc3)[C@H]3COC(=O)[C@H]23)OCO4)cc(OC)c1O has a documented TGI of > 50 µM

Entry O=C(CSc1nc2ccccc2c2ccccc12)c1ccccc1 ; TGI = > 100 µM

TGI reported for this molecule C/C(=C\COc1cc(O)c2c(c1)C(=O)c1cc(C)cc(O)c1C2=O)CCC1OC1(C)C (stereo not drawn) : > 100 µM

* * *

Tested on: PC-3 prostate
assay name: NCI tumour cell line growth inhibition, 48 h
Give TGI for every item shown.

O=C(/C=C/NC(=O)OCc1ccccc1)OCc1ccccc1 yielded TGI of > 100 µM

# compound CCC(=O)/C=C/c1ccccc1 ; its TGI = > 100 µM

// field: TGI; key: CCn1c(=O)c(Oc2ccc(F)cc2F)cc2cnc(NC3CCOCC3)nc21 ; value = > 25 µM

* * *

System: KM12 colon
assay name: NCI tumour cell line growth inhibition, 48 h
Field: TGI. Provide a value for each of the molecules that follow.

Form field TGI, entry COC(=O)CN(CC1O[C@@H]2OC(C)(C)O[C@@H]2C1N=[N+]=[N-])C(=O)OCc1ccccc1 (some centres undefined) : > 100 µM

The reported TGI of the molecule CC(=O)NCCC1CNc2ccccc21 (centres undefined) was > 100 µM

The molecule identified as COC(=O)[C@@H](C)C[C@H](Cc1ccc2ccccc2c1)NC(=O)c1csc([C@@H](C[C@H](C(C)C)N(C)C(=O)[C@@H](NC(=O)[C@H]2CCCCN2C)C(C)C)OC(C)=O)n1 registered its TGI at > 25 µM

Reported TGI for CCn1c(=O)c(Oc2ccc(F)cc2F)cc2cnc(NC3CCOCC3)nc21 was > 25 µM

* * *

Tested on: M14 melanoma
assay name: NCI tumour cell line growth inhibition, 48 h
value type: TGI

Lab note: O=C(Nc1ccc(OCc2nnc(-c3ccc(Cl)cc3)o2)c(F)c1)c1ccc(Cl)c(C(F)(F)F)c1 gave TGI of > 50 µM

Notebook: O=C1C(Cl)=C(N2CCN(CCOCCO)CC2)C(=O)c2ncccc21 , TGI read as > 10 µM

Field TGI (entry CCOCCOC(=O)C1CCC(=O)N1CN(C(C)=O)c1cc(OC)ccc1OC (stereo unspecified) ) reads > 100 µM

Reported TGI for CC(C)=CCC/C(C)=C/CO was > 100 µM

// TGI lookup, compound = CCC(=O)c1cc(C(=O)C(=S)SC)cc(C(=O)C(=S)SC)c1 , result: > 100 µM

Kindly note the recorded TGI for O=C(c1nc2ccc(Cl)cc2[nH]c1=O)C(O)c1ccccc1 (stereo unspecified) , which is > 100 µM

* * *

I'd be grateful if you could share measured TGI for these entries.
System: RXF 393 renal
assay name: NCI tumour cell line growth inhibition, 48 h

In plain terms, CC1=NC(C)(C)[N+]([O-])=C1 has a documented TGI of > 10 µM

For reference, reported TGI for Cc1nn(C(=O)c2ccccc2O)c2c1C(c1ccc3ccccc3c1O)SC(N)=N2 (stereo not given) stands at > 10 µM

// TGI lookup, molecule = CC1CCC2(OCCO2)[C@]2(C)CC(O)C(=O)C=C12 (stereo not given in full) , result: > 100 µM

Entry under test: O=C(c1ccccc1)N1CCN2CCN=C(c3ccccc3)C21c1ccccc1 (stereo not given) . Its TGI was > 100 µM

Record CCn1cc(C(=O)O)c(=O)c2cc(F)c(N3CCN(CN4C(=O)/C(=N\c5ncc(Cc6cc(OC)c(OC)c(OC)c6)c(N)n5)c5cc(Cl)ccc54)CC3)cc21 . Reported TGI: > 100 µM

From: PubChem BioAssay (NCI)
